# credit: ChEMBL document CHEMBL1134001

- Target Entity: Steryl-sulfatase (Homo sapiens)
- Experimental Protocol: Relative potency compared to COUMATE against Estrone sulfatase
Readings of Potency for the listed compounds
Reported Property: Potency

* NS(=O)(=O)Oc1ccc(C(=O)c2ccccc2)cc1 | 0.191
* CCCCCCCCC(=O)c1ccc(OS(N)(=O)=O)cc1 | 3.53
* NS(=O)(=O)Oc1ccc(C(=O)/C=C/c2ccccc2)cc1 | 0.0456
* CCCCC(=O)c1ccc(OS(N)(=O)=O)cc1 | 0.574
* NS(=O)(=O)Oc1ccc(C=O)cc1 | 0.0472
* CC(=O)c1ccc(OS(N)(=O)=O)cc1 | 0.0397
* CCCCCCCCCC(=O)c1ccc(OS(N)(=O)=O)cc1 | 0.923
* CCCCCCC(=O)c1ccc(OS(N)(=O)=O)cc1 | 2.4
* CCCCCCCC(=O)c1ccc(OS(N)(=O)=O)cc1 | 2.14
* NS(=O)(=O)Oc1ccc(C(=O)Cc2ccccc2)cc1 | 0.364
* C[C@]12CC[C@@H]3c4ccc(OS(N)(=O)=O)cc4CCC3[C@@H]1CCC2=O (single isomer, unassigned) [EMATE] | 24
* CCCC(=O)c1ccc(OS(N)(=O)=O)cc1 | 0.301
